Each recorded value in this set is attributed to the supplement of paper PMC7125110.

Quick reference for self-cleavage kobs at 10000 uM GlcN6P among some variants
B1: glmS ribozyme (parent)
chain: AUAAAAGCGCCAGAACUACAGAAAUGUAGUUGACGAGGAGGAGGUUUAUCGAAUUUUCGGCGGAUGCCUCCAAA

variants of: B1; test: self-cleavage kobs at 10000 uM GlcN6P; higher = faster cleavage; RNA array; conditions: with glucosamine-6-phosphate
Variants at the floor of the assay were thinned out.
observation_type: self-cleavage kobs at 10000 uM GlcN6P

G41U G63C
< 1e-05 s⁻¹
A36U A48G
< 1e-05 s⁻¹
C10A U31A U56C
< 1e-05 s⁻¹
G41U G62U
< 1e-05 s⁻¹
A6G C58G C61U
< 1e-05 s⁻¹
C11U G38A
< 1e-05 s⁻¹
C11U G37C U57A
< 1e-05 s⁻¹
C8A C67G
< 1e-05 s⁻¹
A42C G51A
< 1e-05 s⁻¹
G37C G59C
< 1e-05 s⁻¹
C11U A15C A48U G60A
< 1e-05 s⁻¹
G13A G43C G66A
< 1e-05 s⁻¹
G7A C71U
3.82e-05 s⁻¹
A42G U46G U56C
0.00095 s⁻¹
C16U A53G
0.0282 s⁻¹
A6G A14C G38U
< 1e-05 s⁻¹
G32C G43C G51U
< 1e-05 s⁻¹
A42G U47C
0.00583 s⁻¹
C11A A14G U65G
0.000135 s⁻¹
A36U A39G U45G C61U G62C
< 1e-05 s⁻¹
C8U G38C G43A G44C G63U
< 1e-05 s⁻¹
C68U U69C
6.79e-05 s⁻¹
U30G G32A U49G
5.26e-05 s⁻¹
A15U A53U G63C
< 1e-05 s⁻¹
U31A A39C
0.00166 s⁻¹
G13U G51U
< 1e-05 s⁻¹
U45A C71G
0.00177 s⁻¹
A12U U54G
0.0363 s⁻¹
C8U G32A
< 1e-05 s⁻¹
G29C C34U G38A C71U
< 1e-05 s⁻¹
A48G U49G
5.7e-05 s⁻¹
U45G C68G
8.96e-05 s⁻¹
U54G A64U
8.01e-05 s⁻¹
